# System: Staphylococcus aureus cultures
# experiment.summary: Broth dilution MIC in trypticase soy broth, low and high NaCl (Example 10)
# Format: cell-based
# test.context: Staphylococcus aureus, culture H232 (control); TSB, table part marked b; read-out: MIC
observed.property: MIC (mg/L)

| compound | measure.unit | MIC |
| --- | --- | --- |
| CC(=O)OCC1=C(C(=O)O)N2C(=O)C(NC(=O)CSc3cc(Cl)ccc3Cl)C2SC1 (stereo not shown) | mg/L | 0.12 |
| CC(=O)OCC1=C(C(=O)O)N2C(=O)C(NC(=O)CSc3ccc(Cl)c(Cl)c3)C2SC1 (stereo not shown) | mg/L | 0.12 |

[A] CC(=O)OCC1=C(C(=O)O)N2C(=O)C(NC(=O)CSc3cc(Cl)cc(Cl)c3)C2SC1 (stereo not shown)
[B] COc1cccc(OC)c1C(=O)N[C@@H]1C(=O)N2[C@@H]1SC(C)(C)[C@@H]2C(=O)O
Query string: Lower value for measured MIC? Options: A , B Return value: the label identifying the chosen record.
Result string: A

----------
# System: Staphylococcus aureus cultures
# experiment.summary: Broth dilution MIC in trypticase soy broth, low and high NaCl (Example 10)
# Assay type: cell-based
# test.context: Staphylococcus aureus, culture 3055 (control); TSB, table part marked b; read-out: MIC
observed.property: MIC (µg/mL)

Below, 2 molecules whose answers are already recorded.
| molecule | target | observed.property | measurement |
| --- | --- | --- | --- |
| CC(=O)OCC1=C(C(=O)O)N2C(=O)C(NC(=O)CSc3cc(Cl)ccc3Cl)C2SC1 (stereo not shown) | Staphylococcus aureus cultures | MIC | 0.06 |
| CC(=O)OCC1=C(C(=O)O)N2C(=O)C(NC(=O)CSc3cc(Cl)cc(Cl)c3)C2SC1 (stereo not shown) | Staphylococcus aureus cultures | MIC | 0.06 |

[A] CC(=O)OCC1=C(C(=O)O)N2C(=O)C(NC(=O)CSc3ccc(Cl)c(Cl)c3)C2SC1 (stereo not shown)
[B] COc1cccc(OC)c1C(=O)N[C@@H]1C(=O)N2[C@@H]1SC(C)(C)[C@@H]2C(=O)O
Query string: Lower value for measured MIC? Options: A , B Return value: the label identifying the chosen record.
Result string: A

----------
# System: Staphylococcus aureus cultures
# experiment.summary: Agar dilution susceptibility test, phenylthioacetyl cephalosporins vs methicillin resistant S. aureus (Example 9)
# Type: cell-based
# test.context: Staphylococcus aureus, culture 3131; table part marked c; read-out: MIC
observed.property: MIC (µg/mL)

| compound | measure.unit | MIC |
| --- | --- | --- |
| O=C(Cc1cccs1)N[C@@H]1C(=O)N2C(C(=O)[O-])=C(C[n+]3ccccc3)CS[C@H]12 [Cephaloridine, cephaloridine, reference compound] | µg/mL | 16 |
| CC(=O)OCC1=C(C(=O)O)N2C(=O)C(NC(=O)CSc3ccc(Cl)c(Cl)c3)C2SC1 (centres unmarked) | µg/mL | 1 |

[1] COc1cccc(OC)c1C(=O)N[C@@H]1C(=O)N2[C@@H]1SC(C)(C)[C@@H]2C(=O)O
[2] CC(=O)OCC1=C(C(=O)O)N2C(=O)C(NC(=O)CSc3cc(Cl)ccc3Cl)C2SC1 (centres unmarked)
Query string: Lower value for measured MIC? Options: 1 , 2 Return value: the label identifying the chosen record.
Result string: 2
(2: 1 µg/mL, 1: 128 µg/mL)

----------
# Tested on: Staphylococcus aureus cultures
# experiment.summary: Agar dilution susceptibility test, phenylthioacetyl cephalosporins vs methicillin resistant S. aureus (Example 9)
# Type: cell-based
# test.context: Staphylococcus aureus, culture 3055 (control, benzylpenicillin sensitive); table part marked b; read-out: MIC
Item-by-item account of MIC

| molecule | measurement |
| --- | --- |
| COc1cccc(OC)c1C(=O)N[C@@H]1C(=O)N2[C@@H]1SC(C)(C)[C@@H]2C(=O)O | 1 µg/mL |
| CC(=O)OCC1=C(C(=O)O)N2C(=O)C(NC(=O)CSc3cc(Cl)ccc3Cl)C2SC1 (centres unmarked) | < 0.06 µg/mL |
| CC(=O)OCC1=C(C(=O)O)N2C(=O)C(NC(=O)CSc3cc(Cl)cc(Cl)c3)C2SC1 (centres unmarked) | < 0.06 µg/mL |
| O=C(Cc1cccs1)N[C@@H]1C(=O)N2C(C(=O)[O-])=C(C[n+]3ccccc3)CS[C@H]12 [Cephaloridine, cephaloridine, reference compound] | < 0.06 µg/mL |

Now for another entry.
Query string: Which MIC is listed for CC(=O)OCC1=C(C(=O)O)N2C(=O)C(NC(=O)CSc3ccc(Cl)c(Cl)c3)C2SC1 (centres unmarked) ?
Result string: < 0.06 µg/mL

----------
# Test system: Staphylococcus aureus cultures
# experiment.summary: Agar dilution susceptibility test, phenylthioacetyl cephalosporins vs methicillin resistant S. aureus (Example 9)
# Type: cell-based
# test.context: Staphylococcus aureus, culture 3131; table part marked b; read-out: MIC
observed.property: MIC (µg/mL)

Below, 3 molecules whose answers are already recorded.
| molecule | MIC, µg/mL |
| --- | --- |
| O=C(Cc1cccs1)N[C@@H]1C(=O)N2C(C(=O)[O-])=C(C[n+]3ccccc3)CS[C@H]12 [Cephaloridine, cephaloridine, reference compound] | 1 |
| CC(=O)OCC1=C(C(=O)O)N2C(=O)C(NC(=O)CSc3cc(Cl)ccc3Cl)C2SC1 (centres unmarked) [Example 2] | 0.5 |
| CC(=O)OCC1=C(C(=O)O)N2C(=O)C(NC(=O)CSc3ccc(Cl)c(Cl)c3)C2SC1 (centres unmarked) [Example 1] | 1 |

[1] COc1cccc(OC)c1C(=O)N[C@@H]1C(=O)N2[C@@H]1SC(C)(C)[C@@H]2C(=O)O [Methicillin, methicillin]
[2] CC(=O)OCC1=C(C(=O)O)N2C(=O)C(NC(=O)CSc3cc(Cl)cc(Cl)c3)C2SC1 (centres unmarked) [Example 3]
Query string: Two entries are listed, 1 and 2 . Which one carries the higher MIC? Return value: the label identifying the chosen record.
Result string: 1
(1: 8 µg/mL, 2: 0.5 µg/mL)

----------
# System: Staphylococcus aureus cultures
# experiment.summary: Agar dilution susceptibility test, phenylthioacetyl cephalosporins vs methicillin resistant S. aureus (Example 9)
# Format: cell-based
# test.context: Staphylococcus aureus, culture S61; table part marked b; read-out: MIC
observed.property: MIC (µg/mL)

| compound | MIC, µg/mL |
| --- | --- |
| CC(=O)OCC1=C(C(=O)O)N2C(=O)C(NC(=O)CSc3ccc(Cl)c(Cl)c3)C2SC1 (stereo not shown) | 0.5 |
| O=C(Cc1cccs1)N[C@@H]1C(=O)N2C(C(=O)[O-])=C(C[n+]3ccccc3)CS[C@H]12 [Cephaloridine, cephaloridine, reference compound] | 4 |

[I] COc1cccc(OC)c1C(=O)N[C@@H]1C(=O)N2[C@@H]1SC(C)(C)[C@@H]2C(=O)O
[II] CC(=O)OCC1=C(C(=O)O)N2C(=O)C(NC(=O)CSc3cc(Cl)cc(Cl)c3)C2SC1 (stereo not shown)
Query string: Lower value for measured MIC? Options: I , II Return value: the label identifying the chosen record.
Result string: II
(II: 0.5 µg/mL, I: 8 µg/mL)

----------
# Test system: Staphylococcus aureus cultures
# experiment.summary: Broth dilution MIC in trypticase soy broth, low and high NaCl (Example 10)
# Assay type: cell-based
# test.context: Staphylococcus aureus, culture 3132 (first column so headed); TSB, table part marked b; read-out: MIC
Item-by-item account of MIC

| molecule | target | MIC |
| --- | --- | --- |
| CC(=O)OCC1=C(C(=O)O)N2C(=O)C(NC(=O)CSc3cc(Cl)cc(Cl)c3)C2SC1 (stereo not drawn) | Staphylococcus aureus cultures | < 0.5 µg/mL |
| CC(=O)OCC1=C(C(=O)O)N2C(=O)C(NC(=O)CSc3ccc(Cl)c(Cl)c3)C2SC1 (stereo not drawn) | Staphylococcus aureus cultures | < 0.5 µg/mL |

Now for another entry.
Query string: Which MIC is listed for CC(=O)OCC1=C(C(=O)O)N2C(=O)C(NC(=O)CSc3cc(Cl)ccc3Cl)C2SC1 (stereo not drawn) ?
Result string: < 0.5 µg/mL
